Measured phenotypic distance by item
Tested on: E28 (patient-derived glioblastoma stem cells of classical subtype);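 further: cell Painting imaging in 384-well plates, CellProfiler features reduced to at least 20 principal components, Euclidean distance versus same-plate DMSO vehicle wells (0.1% v/v), median over six images per well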
Test: phenotypic distance (Euclidean, principal components) from DMSO controls (arbitrary units); higher = stronger morphological change
Conditions: 12.3 nM; exposure time: 72 h
Structures can show the parent of a compound that is named as a salt.

Molecule	phenotypic distance
COc1cc2ncnc(Nc3cccc(Br)c3)c2cc1OC	0.832
COc1cc2c(cc1-c1c(C)noc1C)ncc1[nH]c(=O)n([C@H](C)c3ccccn3)c12	0.901
C/C(=C\c1csc(C)n1)[C@@H]1C[C@@H]2O[C@]2(C)CCC[C@H](C)[C@H](O)[C@@H](C)C(=O)C(C)(C)[C@@H](O)CC(=O)N1 [Ixabepilone]	2.1
C[C@@]12C(=O)OC(=O)[C@]1(C)[C@H]1CC[C@@H]2O1	0.782
C[C@]12CC[C@H](O)C[C@H]1CC[C@@H]1[C@@H]2C[C@@H](O)[C@]2(C)[C@@H](C3=CC(=O)OC3)CC[C@]12O	0.587
CCN(CC)Cc1ccc(C(=O)N(CCc2ccccc2OC)[C@@H]2CCNC2)cc1	0.51
CC(C)NCC(O)c1cc(O)cc(O)c1 (stereo unspecified) [Metaproterenol sulfate, orciprenaline sulfate]	0.464
OC[C@H]1NC[C@H](O)[C@@H](O)[C@@H]1O	1.73
O=C1c2c(O)ccc(O)c2C(=O)c2c(NCCNCCO)ccc(NCCNCCO)c21	3.24
COc1cc2c(NC3CCN(C(C)C)CC3)nc(C3CCCCC3)nc2cc1OCCCN1CCCC1	0.447
CNCCc1ccccn1 [Betahistine mesylate]	1.01
C[C@H]1Oc2cc(cnc2N)-c2c(nn(C)c2C#N)CN(C)C(=O)c2ccc(F)cc21	0.784
COc1cc2c[n+](C)c3c4cc5c(cc4ccc3c2cc1OC)OCO5 [Nitidine chloride]	0.746
Cc1cc(Nc2cc(CN3CCOCC3)c3nc(C)c(Cc4ccc(Cl)cc4F)n3n2)n[nH]1	0.536
N=C(N)NCc1cccc(I)c1 [Iobenguane sulfate]	0.866
CCCCCCCCCCCCCC(=O)O[C@@H]1[C@@H](C)[C@@]2(O)[C@@H](C=C(CO)C[C@]3(O)C(=O)C(C)=C[C@@H]23)[C@@H]2C(C)(C)[C@]12OC(C)=O [Phorbol 12-myristate 13-acetate]	1.89

---

Test system: E31 (patient-derived glioblastoma stem cells of proneural subtype);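 further: nuclei counted by high-content imaging of Hoechst-stained cells in laminin-coated 384-well plates, relative to 0.1% DMSO vehicle wells, with staurosporine as cell-death control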
Experiment: surviving fraction (nuclei count normalised to DMSO); higher = more cells surviving (less toxic)
Settings: 12.34567901 nM; exposure time: 72 h
Where a name gives a salt, the structure may show the parent alone.
Reported metric: surviving fraction

Compound	Tgt	Reported metric	Recorded value
COc1cc([C@@H]2c3cc4c(cc3[C@@H](O[C@@H]3O[C@@H]5CO[C@@H](C)O[C@H]5[C@H](O)[C@H]3O)[C@H]3COC(=O)[C@H]23)OCO4)cc(OC)c1O [Etoposide]	E31	surviving fraction	0.823
COc1cc2nc(N3CCN(C(=O)c4ccco4)CC3)nc(N)c2cc1OC [Prazosin hydrochloride]	E31	surviving fraction	1.19
Nc1ncn([C@@H]2O[C@H](CO)[C@@H](O)[C@H]2O)c(=O)n1	E31	surviving fraction	0.84
OCCN1C[C@H](O)[C@@H](O)[C@H](O)[C@H]1CO	E31	surviving fraction	1.15
COC(=O)[C@@H]1[C@H]2C[C@H]3c4[nH]c5ccccc5c4CCN3C[C@@H]2CC[C@@H]1O [Yohimbine hydrochloride]	E31	surviving fraction	0.999
